Hello, the source for this data is PubChem BioAssay (Tox21), in case you need it.

Assay: A CellTox Green Cytotoxicity Assay to monitor cytotoxicity in HEK293 cells - 40 hour (AID 1224871); also: nearly all actives have a fitted effect of over 45% in size
Details: CellTox Green fluorescence; series mostly up to 76.8 µM
Results filed as inconclusive are left out. The source made the active and inactive calls. Calls follow the shape of the dose curve; as a rule, active = well fitted activation curve with a large enough effect in the repeat runs; inconclusive = weak or mixed curves; inactive = flat fitted curve, though single readings scatter.
Return exactly one item of 1.0 = active, 0.0 = inactive

Request: What did this assay record as the result for COc1ccc(C=O)cc1 ?
Response: 0.0

Request: What did this assay record as the result for CN(C)C(=O)Nc1ccc(Cl)cc1 ?
Response: 0.0

Request: What did this assay record as the result for CCN(CC)C(=O)SCc1ccc(Cl)cc1 ?
Response: 0.0

Request: What did this assay record as the result for O=C(O)CC[N+](=O)[O-] ?
Response: 0.0

Request: What did this assay record as the result for O=C(NC(=O)c1c(F)cccc1F)Nc1ccc(Cl)cc1 ?
Response: 0.0

Request: What did this assay record as the result for CCCCOCCOP(=O)(OCCOCCCC)OCCOCCCC ?
Response: 0.0

Request: What did this assay record as the result for Nc1ccc(Cl)cc1N ?
Response: 1.0

Request: What did this assay record as the result for CNC(=O)Oc1cccc2c1OC(C)(C)O2 ?
Response: 0.0

Request: What did this assay record as the result for CCc1cccc(CC)c1N(COC)C(=O)CCl ?
Response: 0.0

Request: What did this assay record as the result for c1ccc(P(c2ccccc2)c2ccccc2)cc1 ?
Response: 0.0

Request: What did this assay record as the result for CCC(CC)Nc1c([N+](=O)[O-])cc(C)c(C)c1[N+](=O)[O-] ?
Response: 0.0

Request: What did this assay record as the result for NNC(N)=S ?
Response: 0.0

Request: What did this assay record as the result for Nc1ccncc1 ?
Response: 0.0

Request: What did this assay record as the result for Cc1cc(Cl)ccc1OCCCC(=O)O ?
Response: 0.0

Request: What did this assay record as the result for CC(C)C(=O)OCC(C)(C)C(OC(=O)C(C)C)C(C)C (stereo not given) ?
Response: 0.0
